Below: a set of entries, each annotated with reported koff.
target-system: T1, EGFRvIII extracellular domain (EGFR (1-29)-G-(298-645)-LESRGPF-Myc-NMHTG-6His) (human, UniProt P00533 298-641)
T1 construct: also called recombinant EGFRvIII; not shown: Myc tag
assay-summary: SPR (Biacore), antibody captured via anti-human Fc, antigen injected
Respond numerically; units are s⁻¹ and should not be typed.

# annotated cases, reported koff shown
Antibody D (AbD) (antibody, V domains shown, Full length IgG1) VH: EVQLQESGPGLVKPSQTLSLTCTVSGYSISSDFAWNWIRQPPGKGLEWMGYISYSGNTRYQPSLKSRITISRDTSKNQFFLKLNSVTAADTATYYCVTAGRGFPYWGQGTLVTVSS VL: DIQMTQSPSSMSVSVGDRVTITCHSSQDINSNLGWLQQKPGKSFKGLIYHGANLHDGVPSRFSGSGSGTDYTLTISSLQPEDFATYYCVQYAEFPWTFGGGTKLEIK    0.000866
Antibody L (AbL) (antibody, V domains shown, Full length IgG1) VH: EVQLQESGPGLVKPSQTLSLTCTVSGYSIGKDFAWNWIRQPPGKGLEWMGYISYNGNTRYQPSLKSRITISRDTSKNQFFLKLNSVTAADTATYYCVTASRGLPYWGQGTLVTVSS VL: DIQMTQSPSSMSVSVGDRVTITCHSSQDITYNVGWLQQKPGKSFKGLIYHGSNLDHGVPSRFSGSGSGTDYTLTISSLQPEDFATYYCVQYDDFPWTFGGGTKLEIK    6.95e-05

// switching to the query binder
Recorded koff for Antibody C (AbC) (antibody, V domains shown, Full length IgG1) VH: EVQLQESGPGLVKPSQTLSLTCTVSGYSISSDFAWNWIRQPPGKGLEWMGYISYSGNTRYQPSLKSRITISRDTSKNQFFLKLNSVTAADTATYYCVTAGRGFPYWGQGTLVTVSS VL: DIQMTQSPSSMSVSVGDRVTITCHSSQDINSNIGWLQQKPGKSFKGLIYHGTNLDDGVPSRFSGSGSGTDYTLTISSLQPEDFATYYCVQYEQFPWTFGGGTKLEIK , please?
0.00079
